# target under test: FGFR3 (UniProt P22607)
# Sequence (P22607 whole entry, looked up): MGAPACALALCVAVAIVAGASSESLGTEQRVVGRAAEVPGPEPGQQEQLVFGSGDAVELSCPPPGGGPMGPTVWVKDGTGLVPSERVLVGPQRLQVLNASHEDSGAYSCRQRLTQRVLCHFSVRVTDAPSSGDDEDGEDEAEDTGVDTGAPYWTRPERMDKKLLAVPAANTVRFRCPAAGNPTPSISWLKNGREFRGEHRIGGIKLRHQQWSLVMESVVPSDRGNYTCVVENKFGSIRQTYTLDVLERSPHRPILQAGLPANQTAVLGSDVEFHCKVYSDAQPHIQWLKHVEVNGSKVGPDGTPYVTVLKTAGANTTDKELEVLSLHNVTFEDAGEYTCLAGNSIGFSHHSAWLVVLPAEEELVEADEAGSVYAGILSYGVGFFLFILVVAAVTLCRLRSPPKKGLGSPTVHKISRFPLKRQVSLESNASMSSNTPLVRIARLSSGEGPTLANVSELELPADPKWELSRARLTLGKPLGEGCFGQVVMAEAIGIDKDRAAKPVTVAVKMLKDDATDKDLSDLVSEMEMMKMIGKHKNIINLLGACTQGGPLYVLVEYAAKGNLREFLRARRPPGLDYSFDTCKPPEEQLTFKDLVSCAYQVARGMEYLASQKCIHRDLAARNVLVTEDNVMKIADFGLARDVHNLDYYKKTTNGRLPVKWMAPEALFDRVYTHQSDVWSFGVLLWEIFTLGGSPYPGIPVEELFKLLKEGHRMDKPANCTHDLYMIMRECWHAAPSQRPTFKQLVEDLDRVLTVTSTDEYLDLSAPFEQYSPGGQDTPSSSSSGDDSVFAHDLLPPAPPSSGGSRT
# experiment description: phosphorylation enrichment, bacterial display (enrichment ratio); higher = better substrate or ligand; peptides without Tyr show the background;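 further: 11-residue human phosphosite peptides and single-mutation variants displayed on the E. coli surface, counted by deep sequencing, each peptide's frequency after selection divided by its frequency in the unselected input library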;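 further: frequency after pTyr selection over input frequency; kinase dosed for 20-30% of maximal phosphorylation in three min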
Documented phosphorylation enrichment across a set of sequences
readout kind: phosphorylation enrichment

>>> test_value("KPGVNYFFRVS")
0.697
>>> test_value("IQTDGYRAPEA [UHMK1_Y197]")
0.382
>>> test_value("RAADFYSQQMA [GBP6_Y334_YF]")
0.671
>>> test_value("VISNAYVDLSP [HSD17B4_Y602_A606S]")
0.62
>>> test_value("SVTCAYSPALN [TP53_Y126_T125A]")
0.757
>>> test_value("PDGVEYLKNDP [GRIN3A_Y831]")
0.771
>>> test_value("NNIDFYKKTTN [FGFR2_Y657_YF]")
0.467
>>> test_value("LHQSTYQRFDV [SLC7A14_Y693_YF]")
1.18
>>> test_value("CNPLCYPTIMI [OR6K6_Y160_R159C]")
0.828
>>> test_value("PLDGEYFTPQI [TP53_Y327_L330P]")
2.19
>>> test_value("SVVVTYEPPEV [TP53_Y220_P219T]")
0.708
>>> test_value("AVEDQYFCVDC [FHL1_Y207_YF]")
3.66
>>> test_value("IKNSGYISQFL [EIF2AK3_Y585_R588Q_YF]")
0.474
>>> test_value("CTTIHYNYKCN [TP53_Y234_M237K]")
0.566
>>> test_value("DEQKKYYNAMK [SCN5A_Y1494_E1489D]")
0.508
>>> test_value("SVVVPYESPEV [TP53_Y220_P222S]")
0.647
>>> test_value("GDAMLYFPSVS [GPR143_Y177_A173D_YF]")
0.98
>>> test_value("VSLEAYCKHKY [RXRA_Y403_A398V]")
0.662
>>> test_value("FETDFYRKGGK [INSR_Y1190_YF]")
0.472
>>> test_value("PGPQSYPIVTG [PAX5_Y299]")
0.685

Data origin: the supplement of paper PMC10065799
